# Tested system: Focal Adhesion Kinase (FAK) (Homo sapiens, UniProt Q05397)
# Sequence (Q05397 384-706): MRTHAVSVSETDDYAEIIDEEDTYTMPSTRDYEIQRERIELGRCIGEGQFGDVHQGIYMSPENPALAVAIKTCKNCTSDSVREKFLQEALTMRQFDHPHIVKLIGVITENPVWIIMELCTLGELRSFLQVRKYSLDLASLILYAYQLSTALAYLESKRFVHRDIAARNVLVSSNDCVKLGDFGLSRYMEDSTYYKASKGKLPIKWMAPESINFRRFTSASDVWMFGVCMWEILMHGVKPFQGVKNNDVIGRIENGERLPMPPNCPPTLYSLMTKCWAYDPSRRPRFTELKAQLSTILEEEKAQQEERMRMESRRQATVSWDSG
# Protocol text: FAK assay system (Focal Adhesion Kinase inhibition)
# Assay type: biochemical
# Conditions: read-out: FAK IC50
Endpoint name: IC50 (nM)

Molecule | IC50 / nM
CNS(=O)(=O)c1ccccc1Nc1nc(Nc2cc(OCCN3CCOCC3)ccc2OC)ncc1Br | 13
COc1cc(-n2cncn2)ccc1Nc1ncc(Cl)c(Nc2ccccc2S(=O)(=O)C(C)C)n1 | 7.5
COc1cc(N2CCOCC2)ccc1Nc1ncc(Cl)c(Nc2cccc3c2C(=O)CC3)n1 | 18
CNS(=O)(=O)c1ccccc1Nc1nc(Nc2cc(OC)ccc2OC(C)C)ncc1Br | 63
CNS(=O)(=O)c1ccccc1Nc1nc(Nc2cc(-c3ccccn3)ccc2OC)ncc1Br | 6
CCC(CC)NS(=O)(=O)c1ccccc1Nc1nc(Nc2ccc(OCC3CCCN(C)C3)cc2OC)ncc1Cl (centres unmarked) | 1.9
CCN1CCC(Oc2ccc(Nc3ncc(Cl)c(Nc4ccccc4S(=O)(=O)NC)n3)c(OC)c2)C1 (centres unmarked) | 7.6
CCC(CC)S(=O)(=O)c1ccccc1Nc1nc(Nc2ccc(N3CCOCC3)cc2OC)ncc1Cl | 13
COc1cc(N2CCN(CCO)CC2)ccc1Nc1ncc(Cl)c(Nc2ccccc2S(=O)(=O)C(C)C)n1 | 1.9

(I) COc1cc(N2CCN(C)CC2)ccc1Nc1ncc(Cl)c(Nc2ccccc2S(=O)(=O)NC(C)C)n1
(II) CNS(=O)(=O)c1ccccc1Nc1nc(Nc2cc(OC3CCNCC3)ccc2OC)ncc1Br
[Q] Which record would sort first by descending IC50, I or II ? Identify your selection by its label.
[A] II

----------
# Tested system: FAK (Mus musculus)
# Protocol text: Phos IC50 (phosphorylation)
Endpoint name: IC50 (nM)

Item smiles | Readout units | Observed measurement
CNS(=O)(=O)c1ccccc1Nc1nc(Nc2ccc(OC)nc2OC)ncc1Br | nM | 120
CCCS(=O)(=O)c1ccccc1Nc1nc(Nc2ccc(N3CCN(CC(=O)NC(C)C)CC3)cc2OC)ncc1Cl | nM | 100

(I) CNC(=O)c1ccccc1Nc1nc(Nc2ccc(N3CCOCC3)c3c2ccn3C)ncc1Cl
(II) CCS(=O)(=O)c1ccccc1Nc1nc(Nc2ccc(N3CCN(C(C)=O)CC3)cc2OC)ncc1Cl
[Q] Which record would sort first by descending IC50, I or II ? Identify your selection by its label.
[A] I
(I: 2000 nM, II: 40 nM)

----------
# Tested system: Focal Adhesion Kinase (FAK) (Homo sapiens, UniProt Q05397)
# Protocol text: FAK assay system (Focal Adhesion Kinase inhibition)
# Format: biochemical
# Conditions: read-out: FAK IC50
Endpoint name: IC50 (nM)

Item smiles | IC50 (nM)
CCS(=O)(=O)c1ccccc1Nc1nc(Nc2ccc(N3CCC[C@@H](C(N)=O)C3)cc2OC)ncc1Cl | 9.3

(I) CCOc1ccc(OC)cc1Nc1ncc(Br)c(Nc2ccccc2S(=O)(=O)NC)n1
(II) CC(C)S(=O)(=O)c1ccccc1Nc1nc(Nc2cccc3c2OCC3)ncc1Cl
[Q] # min-compare on IC50 between I and II Identify your selection by its label.
[A] II

----------
# Tested system: IGF-IR (Homo sapiens)
# Sequence (P08069 31-1367): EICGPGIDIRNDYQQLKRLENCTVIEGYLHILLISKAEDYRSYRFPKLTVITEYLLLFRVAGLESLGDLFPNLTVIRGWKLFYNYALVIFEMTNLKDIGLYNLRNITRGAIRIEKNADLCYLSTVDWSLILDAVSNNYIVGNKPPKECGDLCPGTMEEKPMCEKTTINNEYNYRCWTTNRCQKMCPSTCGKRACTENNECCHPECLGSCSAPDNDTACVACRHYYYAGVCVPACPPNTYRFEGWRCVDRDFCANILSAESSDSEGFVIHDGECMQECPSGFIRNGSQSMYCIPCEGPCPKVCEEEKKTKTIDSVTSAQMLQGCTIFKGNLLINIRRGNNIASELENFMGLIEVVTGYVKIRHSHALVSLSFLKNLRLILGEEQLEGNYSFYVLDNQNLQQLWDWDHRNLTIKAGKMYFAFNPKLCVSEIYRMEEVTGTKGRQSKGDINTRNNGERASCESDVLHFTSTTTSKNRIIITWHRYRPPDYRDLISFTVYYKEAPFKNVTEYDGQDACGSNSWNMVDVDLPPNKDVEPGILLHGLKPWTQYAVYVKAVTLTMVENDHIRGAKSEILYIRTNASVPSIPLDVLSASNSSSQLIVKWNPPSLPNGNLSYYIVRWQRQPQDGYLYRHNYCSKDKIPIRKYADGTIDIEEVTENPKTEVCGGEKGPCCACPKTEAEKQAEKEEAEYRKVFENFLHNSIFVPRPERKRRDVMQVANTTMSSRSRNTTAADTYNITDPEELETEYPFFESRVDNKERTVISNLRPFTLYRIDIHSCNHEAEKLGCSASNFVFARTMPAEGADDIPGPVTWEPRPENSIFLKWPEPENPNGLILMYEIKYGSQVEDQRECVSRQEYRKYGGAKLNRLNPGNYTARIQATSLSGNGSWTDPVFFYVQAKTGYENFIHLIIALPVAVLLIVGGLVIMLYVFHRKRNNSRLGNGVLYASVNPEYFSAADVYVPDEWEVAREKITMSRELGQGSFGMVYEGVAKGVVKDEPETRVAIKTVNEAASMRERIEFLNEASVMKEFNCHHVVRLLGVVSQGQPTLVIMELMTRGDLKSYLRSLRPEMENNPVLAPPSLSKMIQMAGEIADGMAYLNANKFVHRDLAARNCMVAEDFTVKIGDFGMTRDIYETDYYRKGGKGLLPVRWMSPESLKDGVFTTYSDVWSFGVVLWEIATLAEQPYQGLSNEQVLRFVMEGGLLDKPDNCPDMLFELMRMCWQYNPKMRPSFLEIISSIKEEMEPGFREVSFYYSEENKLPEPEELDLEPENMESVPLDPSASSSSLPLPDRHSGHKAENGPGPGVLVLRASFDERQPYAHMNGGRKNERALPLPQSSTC
# Protocol text: Cellular Capture ELISA of IGF-I induced autophosphorylation of the IGF-IR
# Conditions: read-out: IGF-1R IC50
Endpoint name: IC50 (nM)

Compound | Readout units | Observed measurement
COc1cc(N2CCC(N3CCN(C)CC3)CC2)ccc1Nc1ncc(Cl)c(Nc2ccccc2S(=O)(=O)NC(C)C)n1 [Example 19-4] | nM | 140
CNS(=O)(=O)c1ccccc1Nc1nc(Nc2cc(N3CCOCC3)ccc2OC)ncc1Br [Example 3-32] | nM | 120
COc1cc(N2CCC(N(C)C)C2)ccc1Nc1ncc(Cl)c(Nc2ccccc2S(=O)(=O)NC(C)C)n1 (stereo not shown) [Example 19-9] | nM | 480
COc1cc(N2CCOCC2)ccc1Nc1ncc(Cl)c(Nc2ccccc2S(=O)(=O)C2CCCC2)n1 [Example 33-2] | nM | 100

----------
# Tested system: Focal Adhesion Kinase (FAK) (Homo sapiens, UniProt Q05397)
# Protocol text: FAK assay system (Focal Adhesion Kinase inhibition)
# Format: biochemical
# Conditions: read-out: FAK IC50
Endpoint name: IC50 (nM)

(a) CNC(=O)c1cc(N2CCCC2)ccc1Nc1nc(Nc2ccc(OC3CCN(C)CC3)cc2OC)ncc1Cl
(b) CCCS(=O)(=O)c1ccccc1Nc1nc(Nc2ccc(N3CCOCC3)cc2OC)ncc1Cl
(c) CCS(=O)(=O)c1ccccc1Nc1nc(Nc2ccc(N3CCOCC3)cc2OC)ncc1Cl
[Q] Could you please order the items by IC50, going from the lowest number to the highest? Output spec: labels arranged per the requested ranking.
[A] b, c, a

----------
# Tested system: FAK (Mus musculus, UniProt P34152)
# Sequence (P34152 2-1052): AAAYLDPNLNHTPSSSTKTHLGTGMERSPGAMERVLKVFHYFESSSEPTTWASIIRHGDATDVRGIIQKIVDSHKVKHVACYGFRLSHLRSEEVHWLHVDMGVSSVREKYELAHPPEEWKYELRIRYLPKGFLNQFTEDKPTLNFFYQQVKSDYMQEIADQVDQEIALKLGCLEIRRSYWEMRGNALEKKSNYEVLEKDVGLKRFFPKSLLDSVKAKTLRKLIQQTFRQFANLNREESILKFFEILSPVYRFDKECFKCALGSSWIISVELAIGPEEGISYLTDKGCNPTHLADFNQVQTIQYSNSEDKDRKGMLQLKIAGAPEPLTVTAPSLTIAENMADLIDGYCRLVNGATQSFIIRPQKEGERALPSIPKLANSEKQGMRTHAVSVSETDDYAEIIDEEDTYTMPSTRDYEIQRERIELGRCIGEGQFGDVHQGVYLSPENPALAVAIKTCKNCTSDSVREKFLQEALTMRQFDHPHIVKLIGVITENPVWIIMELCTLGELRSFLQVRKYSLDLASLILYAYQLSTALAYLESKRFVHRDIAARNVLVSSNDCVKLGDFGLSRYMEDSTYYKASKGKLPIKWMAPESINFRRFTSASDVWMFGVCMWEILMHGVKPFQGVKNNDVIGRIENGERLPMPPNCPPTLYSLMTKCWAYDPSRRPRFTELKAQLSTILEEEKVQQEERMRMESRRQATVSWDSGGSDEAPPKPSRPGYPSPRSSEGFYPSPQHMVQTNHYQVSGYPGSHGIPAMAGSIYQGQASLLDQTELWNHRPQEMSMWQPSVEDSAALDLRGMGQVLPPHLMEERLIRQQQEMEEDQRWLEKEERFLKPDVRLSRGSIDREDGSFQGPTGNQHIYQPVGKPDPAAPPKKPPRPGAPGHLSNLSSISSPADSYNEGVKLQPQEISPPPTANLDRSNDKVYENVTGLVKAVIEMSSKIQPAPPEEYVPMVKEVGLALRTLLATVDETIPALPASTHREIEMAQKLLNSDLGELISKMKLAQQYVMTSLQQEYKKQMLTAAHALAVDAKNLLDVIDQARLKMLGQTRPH
# Protocol text: Phos IC50 (phosphorylation)
pIC50: −log10 of the molar value.
Endpoint name: pIC50

Molecule | Observed measurement
CCCS(=O)(=O)c1ccccc1Nc1nc(Nc2ccc(N3CCN(C(=O)CC)CC3)cc2OC)ncc1Cl [Example 26-8] | 8.00
COc1cc(N2CCN(C(C)=O)CC2)ccc1Nc1ncc(Cl)c(Nc2ccccc2S(=O)(=O)C(C)C)n1 [Example 28-11] | 6.30
CCC(C)NS(=O)(=O)c1ccccc1Nc1nc(Nc2ccc(F)cc2OC)ncc1Cl (stereo not drawn) [Example 21-2] | 6.48

(I) CNS(=O)(=O)c1ccccc1Nc1nc(Nc2cc(OCCN3CCOCC3)ccc2OC)ncc1Br [Example 3-35]
(II) COc1cc(OC2CCN(C)CC2)ccc1Nc1ncc(Cl)c(Nc2ccccc2S(=O)(=O)NC2CCC2)n1 [Example 24-2]
[Q] Which record would sort first by descending pIC50, I or II ? Identify your selection by its label.
[A] I

----------
# Tested system: FAK (Mus musculus)
# Protocol text: Phos IC50 (phosphorylation)
Endpoint name: IC50 (nM)

Compound | IC50, nM
CCC(CC)S(=O)(=O)c1ccccc1Nc1nc(Nc2ccc(N3CCN(C(C)=O)CC3)cc2OC)ncc1Cl [Example 29-3] | 100
CNS(=O)(=O)c1ccccc1Nc1nc(Nc2ccc(N3CCN(C(C)=O)CC3)cc2OC)ncc1Br [Example 3-46] | 100
CCS(=O)(=O)c1ccccc1Nc1nc(Nc2ccc(N3CCC(N4CCOCC4)CC3)cc2OC)ncc1Cl [Example 27-4] | 100

----------
# Tested system: Focal Adhesion Kinase (FAK) (Homo sapiens)
# Protocol text: FAK assay system (Focal Adhesion Kinase inhibition)
# Type: biochemical
# Conditions: read-out: FAK IC50
pIC50: −log10 of the molar value.
Endpoint name: pIC50

Item smiles | Tested system | Observed measurement
CCCS(=O)(=O)c1ccccc1Nc1nc(Nc2ccc(N3CCN(CC(=O)NC(C)C)CC3)cc2OC)ncc1Cl | Focal Adhesion Kinase (FAK) (Homo sapiens) | 8.96

(P) CNS(=O)(=O)c1ccccc1Nc1nc(Nc2cccc3c2OC(F)(F)O3)ncc1Br
(Q) CCC(CC)NS(=O)(=O)c1ccccc1Nc1nc(Nc2ccc(N3CCN(C)CC3)cc2OC)ncc1Cl
(R) CNC(=O)c1ccccc1Nc1nc(Nc2cc(F)ccc2OC)ncc1Br
[Q] Descending sort on pIC50 required. Output spec: labels arranged per the requested ranking.
[A] Q, R, P
(Q: 8.82, R: 7.89, P: 7.36)

These entries and their values trace back to patent US7893074B2.
